- tgt: T1, Rb^P R656W (human, UniProt P06400 380-788, R656W)
- T1 construct: also called variant 49
- T1 sequence (looked up): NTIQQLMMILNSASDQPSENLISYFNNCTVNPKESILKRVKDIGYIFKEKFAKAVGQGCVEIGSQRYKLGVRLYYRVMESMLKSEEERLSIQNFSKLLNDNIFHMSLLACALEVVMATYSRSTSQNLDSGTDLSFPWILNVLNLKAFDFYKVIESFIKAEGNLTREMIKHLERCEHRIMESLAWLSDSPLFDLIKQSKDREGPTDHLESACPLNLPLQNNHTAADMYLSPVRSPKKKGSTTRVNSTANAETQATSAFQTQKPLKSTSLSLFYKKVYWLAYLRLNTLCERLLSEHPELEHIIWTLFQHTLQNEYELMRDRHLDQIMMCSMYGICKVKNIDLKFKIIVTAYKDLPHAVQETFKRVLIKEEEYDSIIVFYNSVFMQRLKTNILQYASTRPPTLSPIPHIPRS
- assay-procedure: fluorescence polarisation; 25 °C; unlabeled Rb^P titrated against 1.5 nM TMR-E2F1^TD or 7.5 nM TMR-E7^LxCxE; 25 mM Tris pH 8.0, 200 mM NaCl, 1 mM DTT, 0.1% Tween-20; 2 min incubation; quadratic fit; apparent Kd for the variants, Kd for WT
- protocol-conditions: both partners purified
No end group written: not given here. TMR = tetramethyl rhodamine dye
Overview of recorded pKd for various binders
pKd (log units): -log10 of the concentration in mol/L.

1. DLYCYEQLN (also: TMR label, position not given here, source: synthetic peptide, bought: GenScript) [TMR-E7^LxCxE, LxCxE peptide of the E7 oncoprotein from HPV]
8.10

Now consider a different binder.
For the binder {TMR}-GEGIRDLFDCDFGDLTPLD (also called E2F^TD; source: synthetic peptide, bought: GenScript) [TMR-E2F1^TD, peptide of the E2F1 transactivation domain] , what pKd is on record? 7.41
